Origin of measurements: patent US6534524B1

- Tested on: human umbilical vein endothelial cells (HUVEC)
- Test Protocol: HUVEC proliferation assay (VEGF-stimulated, MTT)
- Type: cell-based
- Test Context: Homo sapiens, HUVEC, + albumin; read-out: HUVEC + albumin IC50
Property: IC50

Query block: Reported IC50 for "O=C(N/N=C/c1ccccn1)c1ccccc1Sc1ccc2c(/C=C/c3ccccn3)n[nH]c2c1" : what is it?
Result block: > 30 nM

Query block: Reported IC50 for "Cc1cc(C(=O)Nc2cc(Nc3ccc4c(/C=C/c5ccccn5)n[nH]c4c3)ccc2C)n(C)n1" : what is it?
Result block: ~10 nM

Query block: Reported IC50 for "O=C(c1cccc(NC(=O)c2cccc3[nH]ccc23)c1)c1ccc2c(/C=N/n3cccc3)n[nH]c2c1" : what is it?
Result block: ~15 nM

Query block: Reported IC50 for "C=CCONC(=O)c1ccccc1Sc1ccc2c(/C=C/c3ccccn3)n[nH]c2c1" : what is it?
Result block: 1.5 nM

Query block: Reported IC50 for "Cc1cnccc1C(=O)Nc1cccc(C(=O)c2ccc3c(/C=C/c4ccccn4)n[nH]c3c2)c1" : what is it?
Result block: 7.7 nM

Query block: Reported IC50 for "Cc1cc(C(=O)Nc2cc(Nc3ccc4c(/C=C/c5ccccn5)n[nH]c4c3)c(F)cc2C)n(C)n1" : what is it?
Result block: ~8 nM

Query block: Reported IC50 for "O=C(N/N=C/C(F)(F)F)c1ccccc1Sc1ccc2c(/C=C/c3ccccn3)n[nH]c2c1" : what is it?
Result block: > 30 nM

Query block: Reported IC50 for "CN(O)C(=O)c1ccccc1Sc1ccc2c(/C=C/c3ccccn3)n[nH]c2c1" : what is it?
Result block: > 100 nM

Query block: Reported IC50 for "O=C(c1cccc(NC(=O)c2ccccn2)c1)c1ccc2c(/C=C/c3ccccn3)n[nH]c2c1" : what is it?
Result block: 5.2 nM

Query block: Reported IC50 for "O=C(NCc1ccncc1)c1ccccc1Sc1ccc2c(/C=C/c3ccccn3)n[nH]c2c1" : what is it?
Result block: > 30 nM
